Source of measurements: paper PMC6473556

# TEST DETAILS: Critical gel concentration, inverted vial method
# Type: physicochemical
# TEST CONDITIONS: 0.5 ml water
REPORTED METRIC: CGC (critical gel concentration) (Wt%)

> print(dat)
                            compound.smiles  unit.annotation  recorded.number
1  Cc1cc(NC=C2C(=O)C(=CNc3ccc(C(=O)O)c(C)c3)C(=O)C(=CNc3ccc(C(=O)O)c(C)c3)C2=O)ccc1C(=O)O              Wt%              0.5
2  O=C1C(=CNc2cc(C(=O)O)cc(C(F)(F)F)c2)C(=O)C(=CNc2cc(C(=O)O)cc(C(F)(F)F)c2)C(=O)C1=CNc1cc(C(=O)O)cc(C(F)(F)F)c1              Wt%              0.1
3  COc1c(NC=C2C(=O)C(=CNc3cccc(C(=O)O)c3OC)C(=O)C(=CNc3cccc(C(=O)O)c3OC)C2=O)cccc1C(=O)O              Wt%              0.5
4  COc1cc(NC=C2C(=O)C(=CNc3ccc(C(=O)O)c(OC)c3)C(=O)C(=CNc3ccc(C(=O)O)c(OC)c3)C2=O)ccc1C(=O)O              Wt%              0.5
5  O=C1C(=CNc2ccc(C(=O)O)cc2O)C(=O)C(=CNc2ccc(C(=O)O)cc2O)C(=O)C1=CNc1ccc(C(=O)O)cc1O              Wt%              0.4
6  O=C1C(=CNc2cc(C(=O)O)ccc2O)C(=O)C(=CNc2cc(C(=O)O)ccc2O)C(=O)C1=CNc1cc(C(=O)O)ccc1O              Wt%              0.4
7  O=C1C(=CNc2ccc(C(=O)O)cc2)C(=O)C(=CNc2ccc(C(=O)O)cc2)C(=O)C1=CNc1ccc(C(=O)O)cc1              Wt%              0.3
8  O=C1C(=CNc2ccc(O)cc2)C(=O)C(=CNc2ccc(O)cc2)C(=O)C1=CNc1ccc(O)cc1              Wt%              0.9
9  O=C1C(=CNc2ccc(Cl)c(C(=O)O)c2)C(=O)C(=CNc2ccc(Cl)c(C(=O)O)c2)C(=O)C1=CNc1ccc(Cl)c(C(=O)O)c1              Wt%              0.2

----------
# TEST DETAILS: Rheometry of the gels (time, frequency and stress sweeps)
# Type: physicochemical
# TEST CONDITIONS: gel at 40 mM gelator concentration; standard deviation in brackets; rounded to nearest 100
REPORTED METRIC: G′′

> print(dat)
                            compound.smiles        result
1  O=C1C(=CNc2cc(C(=O)O)cc(C(F)(F)F)c2)C(=O)C(=CNc2cc(C(=O)O)cc(C(F)(F)F)c2)C(=O)C1=CNc1cc(C(=O)O)cc(C(F)(F)F)c1  2600(200) Pa
2  O=C1C(=CNc2ccc(C(=O)O)cc2)C(=O)C(=CNc2ccc(C(=O)O)cc2)C(=O)C1=CNc1ccc(C(=O)O)cc1  2300(100) Pa
3  Cc1cc(NC=C2C(=O)C(=CNc3ccc(C(=O)O)c(C)c3)C(=O)C(=CNc3ccc(C(=O)O)c(C)c3)C2=O)ccc1C(=O)O  2500(200) Pa
4  O=C1C(=CNc2cc(C(=O)O)ccc2O)C(=O)C(=CNc2cc(C(=O)O)ccc2O)C(=O)C1=CNc1cc(C(=O)O)ccc1O  3100(400) Pa
5  COc1cc(NC=C2C(=O)C(=CNc3ccc(C(=O)O)c(OC)c3)C(=O)C(=CNc3ccc(C(=O)O)c(OC)c3)C2=O)ccc1C(=O)O  2100(100) Pa
6  O=C1C(=CNc2ccc(Cl)c(C(=O)O)c2)C(=O)C(=CNc2ccc(Cl)c(C(=O)O)c2)C(=O)C1=CNc1ccc(Cl)c(C(=O)O)c1  3300(200) Pa
7  O=C1C(=CNc2ccc(O)cc2)C(=O)C(=CNc2ccc(O)cc2)C(=O)C1=CNc1ccc(O)cc1   300(300) Pa
8  COc1c(NC=C2C(=O)C(=CNc3cccc(C(=O)O)c3OC)C(=O)C(=CNc3cccc(C(=O)O)c3OC)C2=O)cccc1C(=O)O  2100(300) Pa
9  O=C1C(=CNc2ccc(C(=O)O)cc2O)C(=O)C(=CNc2ccc(C(=O)O)cc2O)C(=O)C1=CNc1ccc(C(=O)O)cc1O  2100(200) Pa

----------
# TEST DETAILS: Rheometry of the gels (time, frequency and stress sweeps)
# Format: physicochemical
# TEST CONDITIONS: gel at 40 mM gelator concentration; standard deviation in brackets; rounded to nearest 10
REPORTED METRIC: Yield stress

> print(dat)
                                   compound  reported.metric       result
1  O=C1C(=CNc2ccc(Cl)c(C(=O)O)c2)C(=O)C(=CNc2ccc(Cl)c(C(=O)O)c2)C(=O)C1=CNc1ccc(Cl)c(C(=O)O)c1 [R2]     Yield stress   80(20) μNm
2  O=C1C(=CNc2ccc(C(=O)O)cc2O)C(=O)C(=CNc2ccc(C(=O)O)cc2O)C(=O)C1=CNc1ccc(C(=O)O)cc1O [R4]     Yield stress   40(10) μNm
3  COc1c(NC=C2C(=O)C(=CNc3cccc(C(=O)O)c3OC)C(=O)C(=CNc3cccc(C(=O)O)c3OC)C2=O)cccc1C(=O)O [R7]     Yield stress   90(30) μNm
4  O=C1C(=CNc2cc(C(=O)O)ccc2O)C(=O)C(=CNc2cc(C(=O)O)ccc2O)C(=O)C1=CNc1cc(C(=O)O)ccc1O [R5]     Yield stress   80(20) μNm
5  Cc1cc(NC=C2C(=O)C(=CNc3ccc(C(=O)O)c(C)c3)C(=O)C(=CNc3ccc(C(=O)O)c(C)c3)C2=O)ccc1C(=O)O [R8]     Yield stress   70(20) μNm
6  O=C1C(=CNc2ccc(O)cc2)C(=O)C(=CNc2ccc(O)cc2)C(=O)C1=CNc1ccc(O)cc1 [R9]     Yield stress   20(40) μNm
7  COc1cc(NC=C2C(=O)C(=CNc3ccc(C(=O)O)c(OC)c3)C(=O)C(=CNc3ccc(C(=O)O)c(OC)c3)C2=O)ccc1C(=O)O [R3]     Yield stress  140(20) μNm
8  O=C1C(=CNc2cc(C(=O)O)cc(C(F)(F)F)c2)C(=O)C(=CNc2cc(C(=O)O)cc(C(F)(F)F)c2)C(=O)C1=CNc1cc(C(=O)O)cc(C(F)(F)F)c1 [R6]     Yield stress  250(30) μNm
9  O=C1C(=CNc2ccc(C(=O)O)cc2)C(=O)C(=CNc2ccc(C(=O)O)cc2)C(=O)C1=CNc1ccc(C(=O)O)cc1 [R1]     Yield stress  140(10) μNm
